- Target of assay: human LSD-1 (Homo sapiens (Human))
- Test description: In vitro enzyme inhibition assay LSD-1 (TR-FRET)
- Format: biochemical
- Applied conditions: TR-FRET, H3K4me1-biotin labeled peptide
pIC50: −log10 of the molar value.
Consider the following molecules; for each one, report its pIC50.

Query: So what's the measured pIC50 for this one? `CN(C)C1CCN(c2nc(-c3ccc(C#N)c(F)c3)c(-c3ccc4nn(C)cc4c3)c(=O)n2C)CC1`
Response: > 7.00

Query: So what's the measured pIC50 for this one? `COc1ccc(-c2c(-c3ccc(C#N)c(F)c3)nc(N3CC(N)C3)n(C)c2=O)cc1`
Response: > 7.00

Query: So what's the measured pIC50 for this one? `CCOc1ccc(-c2c(-c3ccc(C#N)c(F)c3)nc(N3CCC(N)CC3)n(C)c2=O)cn1`
Response: > 7.00

Query: So what's the measured pIC50 for this one? `Cn1c(N2CCC(N)CC2)nc(-c2ccccc2)c(-c2ccc3c(ccn3C)c2)c1=O`
Response: < 5.00
